Could you please report measured EC50 for the items listed next?
assay: Induction of HIV1 GST-Nef-mVenus proteolysis after 30 mins preincubation measured after 60 mins by cleavage enzyme-cytometric bead array method in presence of HIV1 protease; set-up: species or system Human immunodeficiency virus 1

In [3]: df
Out[3]:
                              record_smiles  reported_result
0  CC(C)(C)c1ccc(-c2ccc(OCC(=O)Nc3cccc(C(=O)O)c3)cc2)cc1          34.3 µM

Next up:
Find the recorded EC50 belonging to `CC(C)(C)c1ccc(OCC(=O)Nc2cccc(C(=O)O)c2)cc1` and report it.
109 µM

----------
test: Inhibition of HIV1 Nef (56-206)/SH3 domain of GST-Hck expressed in Escherichia coli BL21 DE3 complex formation after 1 hr by high-mass MALDI TOF analysis
property label: IC50 (µM)
One number for each entry, in µM.

Find the recorded IC50 belonging to `CC(C)(C)c1ccc(-c2ccc(OCC(=O)Nc3cccc(C(=O)O)c3)cc2)cc1` and report it.
15.9

----------
experiment: Cytotoxicity against african green monkey COS7 cells assessed as cell viability up to 40 uM after 70 hrs; type: cell-based, COS-7; settings: chlorocebus aethiops, read-out: Activity
property label: viability at 70 h (%)
One number for each entry, in %.

In [3]: df
Out[3]:
                              record_smiles  unit_symbol  reported_result
0  CC(C)(C)c1ccc(-c2ccc(OCC(=O)Nc3cccc(C(=O)O)c3)cc2)cc1            %               73

Next up:
Find the recorded viability at 70 h belonging to `CC(C)(C)c1ccc(OCC(=O)Nc2cccc(C(=O)O)c2)cc1` and report it.
86.6
